Consider the following molecules and their measured pKi readings.
Biological target: Hepatitis C virus serine protease, NS3/NS4A (Hepatitis C virus, UniProt D2K2A8+A3EZI9)
Experiment: Inhibitory activity against hepatitis C virus NS3.4A protease
Starred links: 1 amine or outer side, 2 acyl side, 3 side chain; linkers in the order of their positions; H or OH if unused. Non-standard residues stand in square brackets, D forms with d. Residues, ends and D or L forms follow the SMILES beside them. Groups on a side chain read outwards from the residue. *: point of attachment. Tetrahydroisoquinolin(2-yl) = c1ccc2c(c1)CCN(*)C2; X1 = CCC[C@H](N[*:1])C(=O)C(=O)[*:2]; Pyrazinecarbonyl = O=C(c1cnccn1)*; Hyp = O=C(O)[C@@H]1C[C@@H](O)CN1; CO = O=C([*:1])[*:2]
Would you please state pKi, meaning minus log10 of the concentration in mol/L, as a bare number?

Use these answered entries as a reference point.
1. CC[C@H](NC(=O)[C@@H]1C[C@@H](OCc2ccccc2)CN1C(=O)[C@@H](NC(=O)[C@@H](NC(=O)c1cnccn1)C(C)C)C(C)C)C(=O)C(=O)N[C@@H](C)c1ccccc1    6.04
2. CCC[C@H]1CCN(C(=O)[C@@H](NC(=O)[C@@H](NC(=O)c2cnccn2)C(C)C)C(C)C)[C@@H]1C(=O)N[C@@H](CCC)C(=O)C(=O)N[C@@H](Cc1ccccc1)C(=O)O    5.92

Now for a further molecule.
Report pKi for CCC[C@H](NC(=O)[C@@H]1C[C@@H](OC(=O)N2CCc3ccccc3C2)CN1C(=O)[C@@H](NC(=O)[C@@H](NC(=O)c1cnccn1)C(C)C)C(C)C)C(=O)C(=O)N[C@@H](Cc1ccccc1)C(=O)O (Pyrazinecarbonyl-VV[Hyp]([CO-Tetrahydroisoquinolin(2-yl)])[X1]F-OH) tested on Hepatitis C virus serine protease, NS3/NS4A (Hepatitis C virus, UniProt D2K2A8+A3EZI9).
7.70

---

Target: Hepatitis C virus serine protease, NS3/NS4A (Hepatitis C virus, UniProt A3EZI9+D2K2A8)
Sequence (D2K2A8 whole entry): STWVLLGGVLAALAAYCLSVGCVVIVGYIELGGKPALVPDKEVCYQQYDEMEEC
Sequence (A3EZI9 whole entry): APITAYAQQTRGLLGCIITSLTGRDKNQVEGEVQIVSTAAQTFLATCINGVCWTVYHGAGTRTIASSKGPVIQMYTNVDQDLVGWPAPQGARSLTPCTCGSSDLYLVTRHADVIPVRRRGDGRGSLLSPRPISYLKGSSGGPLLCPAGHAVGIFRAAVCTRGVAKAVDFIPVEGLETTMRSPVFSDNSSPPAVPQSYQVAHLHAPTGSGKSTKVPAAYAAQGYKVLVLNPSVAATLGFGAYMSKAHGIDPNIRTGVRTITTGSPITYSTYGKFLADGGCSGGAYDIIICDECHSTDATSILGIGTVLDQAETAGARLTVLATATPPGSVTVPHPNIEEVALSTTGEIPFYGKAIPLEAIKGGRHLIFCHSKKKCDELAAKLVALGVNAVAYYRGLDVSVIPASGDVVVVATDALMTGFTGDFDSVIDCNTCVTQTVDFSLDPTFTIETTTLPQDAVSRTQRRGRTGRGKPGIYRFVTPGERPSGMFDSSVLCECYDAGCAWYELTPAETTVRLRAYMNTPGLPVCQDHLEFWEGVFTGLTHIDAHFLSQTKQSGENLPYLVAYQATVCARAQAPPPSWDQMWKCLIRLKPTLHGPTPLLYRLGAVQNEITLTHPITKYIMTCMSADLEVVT
Experiment: Inhibitory activity against hepatitis C virus NS3.4A protease
MEASURE NAME: Ki (nM)
State the answer as a number, implicitly in nM.

May I ask what Ki has been recorded for CCC[C@H](NC(=O)[C@@H]1CCCN1C(=O)[C@@H](NC(=O)[C@@H](NC(=O)c1cnccn1)C1CCCCC1)C(C)(C)C)C(=O)C(=O)NC1CC1 ?
1200

---

Target: Hepatitis C virus serine protease, NS3/NS4A (Hepatitis C virus, UniProt D2K2A8+A3EZI9)
Assay: Inhibitory activity against hepatitis C virus NS3.4A protease
Type: protein-complex assay, Hepacivirus hominis
Starred links: 1 amine or outer side, 2 acyl side, 3 side chain; linkers in the order of their positions; H or OH if unused. Non-standard residues stand in square brackets, D forms with d. Residues, ends and D or L forms follow the SMILES beside them. *: point of attachment. Pro(3S-Et) = CC[C@H]1CCN[C@@H]1C(=O)O; X1 = CCC[C@H](N[*:1])C(=O)C(=O)[*:2]; Pyrazinecarbonyl = O=C(c1cnccn1)*
Consider the following molecules and their measured pKi readings.
Would you please state pKi, meaning minus log10 of the concentration in mol/L, as a bare number?

May I ask what pKi has been recorded for CC[C@H](NC(=O)[C@@H]1[C@@H](C)CCN1C(=O)[C@@H](NC(=O)[C@@H](NC(=O)c1cnccn1)C(C)C)C(C)C)C(=O)C(=O)N[C@@H](C)c1ccccc1 ?
5.85

May I ask what pKi has been recorded for CCC[C@H](NC(=O)[C@@H]1[C@@H](CC)CCN1C(=O)[C@@H](NC(=O)[C@@H](NC(=O)c1cnccn1)C(C)C)C(C)C)C(=O)C(=O)N[C@@H](Cc1ccccc1)C(=O)O (Pyrazinecarbonyl-VV[Pro(3S-Et)][X1]F-OH) ?
6.66

---

Molecular target: Hepatitis C virus serine protease, NS3/NS4A (Hepatitis C virus, UniProt D2K2A8+A3EZI9)
Test: Inhibitory activity against hepatitis C virus NS3.4A protease
Consider the following compounds and their measured Ki readings.
State the answer as a number, implicitly in nM.

1. C=CC[C@H]1CCN(C(=O)[C@@H](NC(=O)[C@@H](NC(=O)c2cnccn2)C(C)C)C(C)C)[C@@H]1C(=O)N[C@@H](CCC)C(=O)C(=O)N[C@@H](Cc1ccccc1)C(=O)O    210
2. CCC[C@H](NC(=O)[C@@H]1[C@@H](C(=O)OC)CCN1C(=O)[C@@H](NC(=O)[C@@H](NC(=O)c1cnccn1)C(C)C)C(C)C)C(=O)C(=O)N[C@@H](Cc1ccccc1)C(=O)O    180

Now for a further compound.
Report Ki for CCC[C@H](NC(=O)[C@@H]1[C@@H](C(C)CC)CCN1C(=O)[C@@H](NC(=O)[C@@H](NC(=O)c1cnccn1)C(C)C)C(C)C)C(=O)C(=O)N[C@@H](Cc1ccccc1)C(=O)O (stereo partly drawn) tested on Hepatitis C virus serine protease, NS3/NS4A (Hepatitis C virus, UniProt D2K2A8+A3EZI9).
120
